Reported inhibition by item:
Biological target: cAMP-dependent protein kinase catalytic subunit PRKX (Homo sapiens);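 also: values are mean percent inhibition of PRKX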
Sequence (whole entry): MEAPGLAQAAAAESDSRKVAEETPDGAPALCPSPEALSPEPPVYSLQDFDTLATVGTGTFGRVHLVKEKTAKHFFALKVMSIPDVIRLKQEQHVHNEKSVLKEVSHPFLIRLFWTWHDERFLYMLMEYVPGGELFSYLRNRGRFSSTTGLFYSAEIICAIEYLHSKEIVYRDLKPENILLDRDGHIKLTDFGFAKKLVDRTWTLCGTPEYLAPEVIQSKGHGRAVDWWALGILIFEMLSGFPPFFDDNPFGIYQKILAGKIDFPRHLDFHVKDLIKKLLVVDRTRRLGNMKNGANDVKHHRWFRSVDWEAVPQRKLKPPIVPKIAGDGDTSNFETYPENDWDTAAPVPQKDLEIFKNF
Details: at 0.1 µM

{"MOLECULE": "NCc1ccc(-c2nc(-c3ccc(Cl)c(O)c3)c(-c3ccncc3)[nH]2)cc1", "inhibition": "-0.67%"}
{"MOLECULE": "CCCN1CCC(Oc2cc(Nc3nc(Nc4cccc(F)c4C(N)=O)c4cc[nH]c4n3)c(OC)cc2Cl)CC1", "inhibition": "7.71%"}
{"MOLECULE": "NC(=O)c1ccc(-c2nc(-c3ccccn3)c(-c3ccc4c(c3)OCO4)[nH]2)cc1", "inhibition": "1.66%"}
{"MOLECULE": "CCn1c(-c2nonc2N)nc2cnc(Oc3cccc(NC(=O)c4ccc(OCCN5CCOCC5)cc4)c3)cc21", "inhibition": "18.6%"}
{"MOLECULE": "CS(=O)(=O)CCNCc1ccc(-c2ccc3ncnc(Nc4ccc(OCc5cccc(F)c5)c(C(F)(F)F)c4)c3c2)o1", "inhibition": "2.44%"}
{"MOLECULE": "COc1cc(C=NNc2ncnc3c2cnn3-c2ccccc2)ccc1O", "inhibition": "1.55%"}
{"MOLECULE": "COc1ccc(-c2nn3ncccc3c2-c2ccnc(Nc3ccc(Cl)c(C(F)(F)F)c3)n2)cc1", "inhibition": "0.84%"}
{"MOLECULE": "COc1cc2ncn(-c3cc(O[C@@H](C)c4ccccc4Cl)c(C(N)=O)s3)c2cc1OC", "inhibition": "3.8%"}
{"MOLECULE": "CC1=C(C(=O)Nc2ccc3[nH]ncc3c2)C(c2ccc3ccccc3c2)CC(=O)N1 (centres undefined)", "inhibition": "33.7%"}
